Assay Target: HLA-B*44:05 (Homo sapiens, UniProt P01889, A223V/A65T/A93T/A95T/D201E/D98Y/E176V/E187L/E204Q/E69K/G107R/H137Y/K202T/L105A/L119I/N104T/N87E/Q56L/Q94N/R106L/R155S/R180D/S101N/S121R/S35A/S48T/T118I/V36M/W191S/Y91S)
Assay Remarks: Immunopeptidome analysis (W6/32 isolation, LC-MS/MS) of 721.220 cells reconstituted with human tapasin
Type: cell-based
Applied Conditions: sheet Overlaps; 1/0 flag; 5% peptide FDR
Readout Kind: B4405 (peptide identified in immunopeptidome)

Study these solved cases before continuing.
AEIGEGAYGKVF [peptide identified within the immunopeptidomes] = 1
AEMDGAAAAKQVM [peptide identified within the immunopeptidomes] = 1
AEDALHNLDRKW [peptide identified within the immunopeptidomes] = 1

(a) EEVDLSKDIQHW [peptide identified within the immunopeptidomes]
(b) SELALESQTKTY [peptide identified within the HLA-B*44:02 immunopeptidome]
Consider a and b . Which of these has its B4405 (peptide identified in immunopeptidome) at a higher number? Pick one and reply with its label.
a
